- System name: LXRβ (Homo sapiens)
- Construct: Co-transfection expression plasmids, comprising full-length LXRα (pCMX-h LXRα or LXRβ (pCMX-hLXRβ))
- Sequence (P55055 whole entry): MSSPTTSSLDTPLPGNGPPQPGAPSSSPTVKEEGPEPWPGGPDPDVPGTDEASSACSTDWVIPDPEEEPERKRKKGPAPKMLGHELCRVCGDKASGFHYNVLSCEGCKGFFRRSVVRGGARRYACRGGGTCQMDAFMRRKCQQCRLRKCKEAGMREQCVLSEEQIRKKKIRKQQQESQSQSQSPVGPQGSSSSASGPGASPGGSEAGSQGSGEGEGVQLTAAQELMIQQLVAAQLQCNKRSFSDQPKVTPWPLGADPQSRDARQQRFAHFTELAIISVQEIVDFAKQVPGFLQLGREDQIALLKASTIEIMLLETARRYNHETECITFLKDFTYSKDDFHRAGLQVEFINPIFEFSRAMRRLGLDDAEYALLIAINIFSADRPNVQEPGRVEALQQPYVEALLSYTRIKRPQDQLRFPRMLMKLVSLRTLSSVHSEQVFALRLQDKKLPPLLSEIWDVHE
- Sequence (P19793 whole entry partner): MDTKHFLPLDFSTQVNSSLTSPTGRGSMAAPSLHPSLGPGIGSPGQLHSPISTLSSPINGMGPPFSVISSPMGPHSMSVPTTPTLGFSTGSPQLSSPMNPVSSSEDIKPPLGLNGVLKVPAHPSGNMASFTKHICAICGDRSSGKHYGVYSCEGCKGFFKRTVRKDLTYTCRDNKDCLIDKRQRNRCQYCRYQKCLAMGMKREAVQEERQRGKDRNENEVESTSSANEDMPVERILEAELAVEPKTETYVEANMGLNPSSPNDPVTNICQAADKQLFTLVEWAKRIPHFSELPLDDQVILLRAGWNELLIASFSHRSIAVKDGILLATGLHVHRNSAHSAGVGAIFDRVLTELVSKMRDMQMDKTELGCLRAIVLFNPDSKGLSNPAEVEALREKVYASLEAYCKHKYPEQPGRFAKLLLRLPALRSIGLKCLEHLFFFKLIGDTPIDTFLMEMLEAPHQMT
- Assay overview: LXR/LXRE co-transfection assay (luciferase reporter) in CV-1 cells, LXRβ
- Assay context: CV-1 cells transfected with pCMX-hLXRβ and LXREx1-Tk-Luciferase, 20 hours incubation, read-out: LXRbeta agonism EC50
pEC50: −log10 of the molar value.
Quantity: pEC50

{"Smiles representation": "Cc1nc(-c2ccc3c(c2)OC(F)(F)O3)c(-c2cc(-c3cc(F)c(CO)c(S(C)(=O)=O)c3)ccc2-c2cc(C#N)nn2C)o1", "Quantity": "pEC50", "Measured result": 7.20}
{"Smiles representation": "Cn1nc(C(F)(F)F)cc1-c1ccc(-c2cc(Cl)c(CO)c(S(C)(=O)=O)c2)cc1-n1nncc1-c1ccc(OC(F)(F)F)cc1", "Quantity": "pEC50", "Measured result": 7.35}
{"Smiles representation": "Cc1nc(-c2cc(-c3cc(F)c(CO)c(S(C)(=O)=O)c3)ccc2-n2nc(C(F)(F)F)cc2C)c(-c2ccc(OC(F)F)cc2)o1", "Quantity": "pEC50", "Measured result": 7.82}

###

- System name: LXRβ (Homo sapiens)
- Construct: Co-transfection expression plasmids, comprising full-length LXRα (pCMX-h LXRα or LXRβ (pCMX-hLXRβ)); expressed in transfected cells; host or cells: CV-1 African green monkey kidney cells, transient transfection with pCMX-hLXRβ
- Assay overview: LXR/LXRE co-transfection assay (luciferase reporter) in CV-1 cells, LXRβ
- Type: cell-based
- Assay context: CV-1 cells, relative to maximum response of high control N-(3-((4-fluorophenyl)-(naphthalene-2-sulfonyl)amino)propyl)-2,2-dimethylpropionamide, read-out: LXRbeta % EFFICACY
Class T: Emax at least 40%. Class F: Emax below 40%.

{"Smiles representation": "Cc1nc(-c2cc(-c3cc(F)c(CO)c(S(C)(=O)=O)c3)ccc2-c2cc(C(C)(C)C(N)=O)nn2C)c(-c2ccc3c(c2)OC(F)(F)O3)o1", "Cat": "F"}
{"Smiles representation": "Cn1nc(C(F)(F)CO)cc1-c1ccc(-c2cccc(S(C)(=O)=O)c2)cc1-n1nncc1-c1ccc2c(c1)OC(F)(F)O2", "Cat": "T"}
{"Smiles representation": "Cc1nc(-c2ccc3c(c2)OC(F)(F)O3)c(-c2cc(-c3cc(F)c(CO)c(S(C)(=O)=O)c3)ccc2-c2cc(C(F)(F)C(=O)NCC(N)=O)nn2C)o1", "Cat": "F"}
{"Smiles representation": "Cc1nc(-c2ccc3c(c2)OC(F)(F)O3)c(-c2cc(-c3cc(F)c(CO)c(S(C)(=O)=O)c3)ccc2-n2ccc(C(N)=O)n2)o1", "Cat": "F"}
{"Smiles representation": "Cc1nc(-c2ccc(OC(F)F)cc2Cl)c(-c2cc(-c3cc(F)c(CO)c(S(C)(=O)=O)c3)ccc2-n2cc(Cl)c(C(F)(F)F)n2)o1", "Cat": "T"}
{"Smiles representation": "Cc1nc(-c2ccc3c(c2)OC(F)(F)O3)c(-c2cc(-c3cccc(S(C)(=O)=O)c3)ccc2-c2cc(C(=O)NC(C)(C)C)nn2C)o1", "Cat": "F"}

###

- System name: LXRβ (Homo sapiens)
- Construct: Co-transfection expression plasmids, comprising full-length LXRα (pCMX-h LXRα or LXRβ (pCMX-hLXRβ))
- Assay overview: LXR/LXRE co-transfection assay (luciferase reporter) in CV-1 cells, LXRβ
- Assay context: CV-1 cells transfected with pCMX-hLXRβ and LXREx1-Tk-Luciferase, 20 hours incubation, read-out: LXRbeta agonism EC50
pEC50: −log10 of the molar value.
Class class 1: pEC50 at least 7. Class class 0: pEC50 below 7.

{"Compound": "CC(=O)c1cc(-c2ccc(-c3cc(F)c(CO)c(S(C)(=O)=O)c3)cc2-c2oc(C)nc2-c2ccc3c(c2)OC(F)(F)O3)n(C)n1 [Example 133]", "System name": "LXRβ (Homo sapiens)", "Cat": "class 1"}
{"Compound": "Cc1nc(-c2ccc(OC(F)(F)F)cc2)c(-c2cc(-c3cccc(S(N)(=O)=O)c3)ccc2-c2cc(C(F)(F)F)nn2C)o1 [Example 126]", "System name": "LXRβ (Homo sapiens)", "Cat": "class 0"}
{"Compound": "CNS(=O)(=O)c1cccc(-c2ccc(-c3cc(C(C)(F)F)nn3C)c(-n3nncc3-c3ccc(OC(F)(F)F)cc3)c2)c1 [Example 20]", "System name": "LXRβ (Homo sapiens)", "Cat": "class 1"}
{"Compound": "Cc1nc(-c2cc(-c3cc(F)c(CO)c(S(C)(=O)=O)c3)ccc2-n2nc(C(F)(F)F)cc2C)c(-c2ccc(OC(F)(F)F)cc2)o1 [Example 386]", "System name": "LXRβ (Homo sapiens)", "Cat": "class 1"}
{"Compound": "Cc1nc(-c2ccc(OC(F)(F)F)cc2)c(-c2cc(-c3cc(F)c(CO)c(S(C)(=O)=O)c3)ccc2-n2nc(C(F)(F)F)cc2Cl)o1 [Example 348]", "System name": "LXRβ (Homo sapiens)", "Cat": "class 1"}
{"Compound": "Cc1nc(-c2ccc(OC(F)(F)F)cc2)c(-c2cc(-c3cccc(C(C)(C)C#N)c3)ccc2-n2cc(Cl)c(C(F)(F)F)n2)o1 [Example 429]", "System name": "LXRβ (Homo sapiens)", "Cat": "class 0"}
{"Compound": "Cc1nc(-c2ccc(Cl)cc2)c(-c2cc(-c3cc(F)c(CO)c(S(C)(=O)=O)c3)ccc2-n2ccc(C(F)(F)F)n2)o1 [Example 336]", "System name": "LXRβ (Homo sapiens)", "Cat": "class 1"}
{"Compound": "Cc1nc(-c2cc(-c3cc(F)c(CO)c(S(C)(=O)=O)c3)ccc2-c2cc(C(C)(C)C(N)=O)nn2C)c(-c2ccc3c(c2)OC(F)(F)O3)o1 [Example 63]", "System name": "LXRβ (Homo sapiens)", "Cat": "class 1"}
{"Compound": "Cc1nc(-c2ccc3c(c2)OC(F)(F)O3)c(-c2cc(-c3cccc(S(C)(=O)=O)c3)ccc2-n2ccc(CO)n2)o1 [Example 363]", "System name": "LXRβ (Homo sapiens)", "Cat": "class 0"}
{"Compound": "Cc1nc(-c2ccc3c(c2)OC(F)(F)O3)c(-c2cc(-c3cccc(S(C)(=O)=O)c3)ccc2-c2cc(C(C)(F)F)nn2C)o1 [Example 94]", "System name": "LXRβ (Homo sapiens)", "Cat": "class 1"}
{"Compound": "Cc1nc(-c2ccc(OC(F)F)nc2)c(-c2cc(-c3cccc(S(C)(=O)=O)c3)ccc2-n2ccc(C(F)(F)F)n2)o1 [Example 353]", "System name": "LXRβ (Homo sapiens)", "Cat": "class 1"}
{"Compound": "Cc1nc(-c2ccc3c(c2)OC(F)(F)O3)c(-c2cc(-c3cc(F)c(CO)c(S(C)(=O)=O)c3)ccc2-n2nc(C(F)(F)F)cc2C)o1 [Example 329]", "System name": "LXRβ (Homo sapiens)", "Cat": "class 1"}
{"Compound": "Cc1nc(-c2ccc3c(c2)OC(F)(F)O3)c(-c2cc(-c3cccc(S(C)(=O)=O)c3)ccc2-c2cc(CC(N)=O)nn2C)o1 [Example 119]", "System name": "LXRβ (Homo sapiens)", "Cat": "class 0"}
{"Compound": "Cc1nc(-c2ccc3c(c2)OC(F)(F)O3)c(-c2cc(-c3cc(F)c(CO)c(S(C)(=O)=O)c3)ccc2-n2ccc(C(N)=O)n2)o1 [Example 360]", "System name": "LXRβ (Homo sapiens)", "Cat": "class 0"}
{"Compound": "Cc1cc(C(C)(F)F)nn1-c1ccc(-c2cccc(S(C)(=O)=O)c2)cc1-n1nncc1-c1ccc(OC(F)(F)F)cc1 [Example 304]", "System name": "LXRβ (Homo sapiens)", "Cat": "class 0"}
{"Compound": "Cc1nc(-c2ccc3c(c2)OC(F)(F)O3)c(-c2cc(-c3cccc(S(C)(=O)=O)c3)ccc2-n2cc(Cl)c(C(F)(F)F)n2)o1 [Example 419]", "System name": "LXRβ (Homo sapiens)", "Cat": "class 1"}
{"Compound": "Cc1nc(-c2cc(-c3cc(F)c(CO)c(S(C)(=O)=O)c3)ccc2-n2ccc(C(F)(F)F)n2)c(-c2cc(F)c(OC(F)F)c(F)c2)o1 [Example 410]", "System name": "LXRβ (Homo sapiens)", "Cat": "class 1"}
